Please provide measured EC50 for the entries that follow.
- assayed-target: human CYP11B1 (Homo sapiens (Human), UniProt P15538)
- Sequence (P15538 25-503): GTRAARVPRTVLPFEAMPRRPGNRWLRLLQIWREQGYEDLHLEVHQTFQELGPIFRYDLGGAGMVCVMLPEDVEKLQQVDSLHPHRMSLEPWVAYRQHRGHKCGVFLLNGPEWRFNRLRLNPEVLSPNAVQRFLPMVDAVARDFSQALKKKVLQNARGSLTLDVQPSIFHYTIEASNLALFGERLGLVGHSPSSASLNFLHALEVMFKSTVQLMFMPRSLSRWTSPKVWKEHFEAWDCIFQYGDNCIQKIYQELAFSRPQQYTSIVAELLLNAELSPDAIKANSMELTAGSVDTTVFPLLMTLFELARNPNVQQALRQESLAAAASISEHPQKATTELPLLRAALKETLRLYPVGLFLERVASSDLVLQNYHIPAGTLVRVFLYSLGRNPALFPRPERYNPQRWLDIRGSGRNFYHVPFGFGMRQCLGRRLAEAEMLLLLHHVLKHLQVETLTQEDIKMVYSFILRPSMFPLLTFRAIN
- experiment: G-402 cellular enzyme assay, human CYP11B1 (cortisol release, HTRF)
- study-conditions: G-402 cells expressing human CYP11B1; 1 μM Deoxycortisol
Numbers only; they are read as µM.

Retrieve EC50 measured for CCS(=O)(=O)NC1CCCc2c(-c3cc4c(cc3Cl)N(C)C(=O)CC4)cncc21 (racemic) and print it.
34.7

Retrieve EC50 measured for CCS(=O)(=O)NC1CCCc2c(-c3ccc4c(c3)CCC(=O)N4C)cncc21 (single isomer, unassigned; (+)) [Example 6] and print it.
1.75

Retrieve EC50 measured for CCS(=O)(=O)NC1CCc2c(-c3ccc4c(c3)CCC(=O)N4C)cncc21 (racemic) and print it.
4.17

Retrieve EC50 measured for CCC(=O)NC1CCc2c(-c3ccc4c(c3)CCC(=O)N4C)cncc21 (racemic) [Example 7] and print it.
1.11

Retrieve EC50 measured for CCC(=O)NC1CCCc2c(-c3cc4c(cc3F)N(C)C(=O)CC4)cncc21 (single isomer, unassigned; (+)) [Example 30] and print it.
3.68

Retrieve EC50 measured for CCS(=O)(=O)NC1CCCc2c(-c3cc(Cl)c4c(c3)CCC(=O)N4C)cncc21 (racemic) [Example 37] and print it.
13.5

Retrieve EC50 measured for CN1C(=O)CCc2cc(-c3cncc4c3CCCC4O)ccc21 (single isomer, unassigned) [Example 69] and print it.
0.0541

====

Please provide measured EC50 for the entries that follow.
- assayed-target: human CYP11B2 (Homo sapiens (Human), UniProt P19099)
- Sequence (P19099 25-503): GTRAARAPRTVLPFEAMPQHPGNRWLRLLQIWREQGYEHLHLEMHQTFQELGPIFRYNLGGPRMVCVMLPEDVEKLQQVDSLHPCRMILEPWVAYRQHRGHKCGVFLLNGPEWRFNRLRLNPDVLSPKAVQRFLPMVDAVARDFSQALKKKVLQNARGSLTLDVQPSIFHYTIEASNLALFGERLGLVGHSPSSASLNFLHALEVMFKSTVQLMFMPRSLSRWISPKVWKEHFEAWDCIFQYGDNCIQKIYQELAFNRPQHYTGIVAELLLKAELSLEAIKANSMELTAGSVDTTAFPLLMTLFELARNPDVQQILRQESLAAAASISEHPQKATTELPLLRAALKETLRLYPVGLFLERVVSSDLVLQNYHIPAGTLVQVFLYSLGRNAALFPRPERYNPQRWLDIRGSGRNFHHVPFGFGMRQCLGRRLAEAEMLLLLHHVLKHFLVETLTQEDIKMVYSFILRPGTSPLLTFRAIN
- experiment: G-402 cellular enzyme assay, human CYP11B2 (aldosterone release, HTRF)
- study-conditions: G-402 cells expressing human CYP11B2; 1 μM Deoxycorticosterone
Numbers only; they are read as nM.

Retrieve EC50 measured for CCC(=O)N[C@@H]1c2cncc(-c3ccc4c(c3)CCC(=O)N4C)c2CC[C@@H]1F (single isomer, unassigned) and print it.
1470

Retrieve EC50 measured for C[C@@H](O)C(=O)NC1CCCc2c(-c3ccc4c(c3)CCC(=O)N4C)cncc21 (single isomer, unassigned; (+)) [Example 18] and print it.
27.9

Retrieve EC50 measured for CCS(=O)(=O)NC1CCCc2c(-c3cc(Cl)c4c(c3)CCC(=O)N4C)cncc21 (racemic) [Example 37] and print it.
199

Retrieve EC50 measured for "CN1C(=O)CCc2cc(-c3cncc4c3CCCC4=O)ccc21" and print it.
15.7

Retrieve EC50 measured for CCC(=O)NC1CCCc2c(-c3cc4c(cc3F)N(C)C(=O)CC4)cncc21 (single isomer, unassigned; (+)) [Example 30] and print it.
30

Retrieve EC50 measured for CCC(=O)NC1CCCc2c(-c3cc4c(cc3Cl)N(C)C(=O)CC4)cncc21 (single isomer, unassigned) and print it.
1770

Retrieve EC50 measured for CCC(=O)N[C@@H]1c2cncc(-c3cc4c(cc3F)N(C)C(=O)CC4)c2CC[C@@H]1F (single isomer, unassigned) and print it.
884

====

- assayed-target: human CYP11B1 (Homo sapiens (Human), UniProt P15538)
- experiment: G-402 cellular enzyme assay, human CYP11B1 (cortisol release, HTRF)
- study-conditions: G-402 cells expressing human CYP11B1; 1 μM Deoxycortisol
readout: EC50 (nM)
Numbers only; they are read as nM.

Quote EC50 with test system human CYP11B1 (Homo sapiens (Human), UniProt P15538) for "CN1C(=O)CCc2cc(-c3cncc4c3CCCN4CCNC(=O)OC(C)(C)C)ccc21"
420

Quote EC50 with test system human CYP11B1 (Homo sapiens (Human), UniProt P15538) for C[C@H](O)C(=O)NC1CCCc2c(-c3ccc4c(c3)CCC(=O)N4C)cncc21 (stereo partly shown) [Example 17]
885

Quote EC50 with test system human CYP11B1 (Homo sapiens (Human), UniProt P15538) for C[C@@H](O)C(=O)NC1CCCc2c(-c3ccc4c(c3)CCC(=O)N4C)cncc21 (single isomer, unassigned; (-)) [Example 19]
13200

Quote EC50 with test system human CYP11B1 (Homo sapiens (Human), UniProt P15538) for "CC(=O)N[C@@H]1CCCc2c(-c3ccc4c(c3)CCC(=O)N4C)cncc21"
1190

Quote EC50 with test system human CYP11B1 (Homo sapiens (Human), UniProt P15538) for CCC(=O)N[C@H]1c2cncc(-c3cc4c(cc3F)N(C)C(=O)CC4)c2CC[C@@H]1F (single isomer, unassigned)
2390

Quote EC50 with test system human CYP11B1 (Homo sapiens (Human), UniProt P15538) for CCC(=O)NC1CCCc2c(-c3ccc4c(c3)CCC(=O)N4C)cncc21 (racemic) [Example 1]
2370

Quote EC50 with test system human CYP11B1 (Homo sapiens (Human), UniProt P15538) for CCC(=O)N[C@@H]1c2cncc(-c3ccc4c(c3)CCC(=O)N4C)c2CC[C@@H]1F (single isomer, unassigned)
32300

Quote EC50 with test system human CYP11B1 (Homo sapiens (Human), UniProt P15538) for "CN1C(=O)CCc2cc(-c3cncc4c3CCCC4=O)ccc21"
7170

Quote EC50 with test system human CYP11B1 (Homo sapiens (Human), UniProt P15538) for "CCC(=O)NCCN1CCCc2c(-c3ccc4c(c3)CCC(=O)N4C)cncc21"
1810

Quote EC50 with test system human CYP11B1 (Homo sapiens (Human), UniProt P15538) for CCC(=O)N[C@H]1c2cncc(-c3ccc4c(c3)CCC(=O)N4C)c2CC[C@H]1C (single isomer, unassigned)
3950

====

- assayed-target: human CYP11B1 (Homo sapiens (Human))
- experiment: G-402 cellular enzyme assay, human CYP11B1 (cortisol release, HTRF)
- study-conditions: G-402 cells expressing human CYP11B1; 1 μM Deoxycortisol
readout: EC50 (nM)
Numbers only; they are read as nM.

Quote EC50 with test system human CYP11B1 (Homo sapiens (Human)) for CN1C(=O)CCc2cc(-c3cncc4c3CCCC4O)ccc21 (single isomer, unassigned) [Example 68]
1620

Quote EC50 with test system human CYP11B1 (Homo sapiens (Human)) for CN1C(=O)CCc2cc(-c3cncc4c3CCC[C@H]4N)ccc21 [Example 61]
450

Quote EC50 with test system human CYP11B1 (Homo sapiens (Human)) for CN1C(=O)CCc2cc(-c3cncc4c3CCC[C@H]4NS(C)(=O)=O)ccc21 [Example 65]
1930

Quote EC50 with test system human CYP11B1 (Homo sapiens (Human)) for CCC(=O)N[C@H]1c2cncc(-c3cc4c(cc3F)N(C)C(=O)CC4)c2CC[C@H]1C (single isomer, unassigned) [Example 48]
2880

====

- assayed-target: human CYP11B1 (Homo sapiens (Human))
- experiment: G-402 cellular enzyme assay, human CYP11B1 (cortisol release, HTRF)
- study-conditions: G-402 cells expressing human CYP11B1; 1 μM Deoxycortisol
- Protocol: Specifically we developed stable G-402 cells expressing ectopically human CYP11B1, human CYP11B2, human CYP11A1, cynomolgus CYP11B1 or cynomolgus CYP11B2 enzyme activity. […] For assaying enzymatic activity, cells were plated onto 96 well plates and incubated for 16 h. An aliquot of the supernatant is then transferred and analyzed for the concentration of the expected product (Aldosterone for CYP11B2; Cortisol for CYP11B1). […]
readout: log10(EC50) (log10 of the value in µM)
Scale: decimal log of EC50, EC50 in µM.

Retrieve log10(EC50) measured for "CCS(=O)(=O)NCCN1CCCc2c(-c3ccc4c(c3)CCC(=O)N4C)cncc21" and print it.
-0.68

Retrieve log10(EC50) measured for CCS(=O)(=O)NC1CCCc2c(-c3ccc4c(c3)CCC(=O)N4C)cncc21 (racemic) [Example 4] and print it.
0.69

Retrieve log10(EC50) measured for CCC(=O)N[C@H]1c2cncc(-c3ccc4c(c3)CCC(=O)N4C)c2CC[C@@H]1C (single isomer, unassigned) and print it.
-0.28

Retrieve log10(EC50) measured for CCC(=O)NC1CCCc2c(-c3cc4c(cc3F)N(C)C(=O)CC4)cncc21 (single isomer, unassigned; (-)) [Example 29] and print it.
1.63

Retrieve log10(EC50) measured for CCC(=O)NC1CCc2c(-c3ccc4c(c3)CCC(=O)N4C)cncc21 (single isomer, unassigned; (+)) [Example 9] and print it.
-0.24

Retrieve log10(EC50) measured for CCS(=O)(=O)NC1CCCc2c(-c3cc4c(cc3F)N(C)C(=O)CC4)cncc21 (single isomer, unassigned; (+)) [Example 32] and print it.
0.63

Retrieve log10(EC50) measured for CCC(=O)N[C@@H]1c2cncc(-c3cc4c(cc3F)N(C)C(=O)CC4)c2CC[C@H]1F (single isomer, unassigned) and print it.
1.17

Retrieve log10(EC50) measured for CCS(=O)(=O)NC1CCCc2c(-c3cc(Cl)c4c(c3)CCC(=O)N4C)cncc21 (single isomer, unassigned; (+)) [Example 38] and print it.
1.20

Retrieve log10(EC50) measured for CCC(=O)N[C@H]1c2cncc(-c3ccc4c(c3)CCC(=O)N4C)c2CC[C@@H]1F (single isomer, unassigned) and print it.
0.20

Retrieve log10(EC50) measured for CCS(=O)(=O)NC1CCc2c(-c3cc4c(cc3F)N(C)C(=O)CC4)cncc21 (single isomer, unassigned; (+)) [Example 27] and print it.
0.28

Retrieve log10(EC50) measured for C[C@@H](O)C(=O)NC1CCCc2c(-c3ccc4c(c3)CCC(=O)N4C)cncc21 (single isomer, unassigned; (+)) [Example 18] and print it.
0.17

Retrieve log10(EC50) measured for CCC(=O)N[C@@H]1c2cncc(-c3cc4c(cc3F)N(C)C(=O)CC4)c2CC[C@@H]1F (single isomer, unassigned) and print it.
1.31

Retrieve log10(EC50) measured for CCC(=O)N[C@H]1c2cncc(-c3ccc4c(c3)CCC(=O)N4C)c2CC[C@H]1F (single isomer, unassigned) and print it.
0.55
